# Tested target: T1, RBFOX1 RRM (Homo sapiens, UniProt Q9NWB1 109-208)
# T1 sequence: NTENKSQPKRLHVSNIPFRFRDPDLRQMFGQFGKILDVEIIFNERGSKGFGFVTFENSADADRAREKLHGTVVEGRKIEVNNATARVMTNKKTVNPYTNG
# Method summary: EMSA; HiTS-Eq, 1 nM pool, 10 min; buffer printed only for the single-RNA assays: 10 mM Tris pH 7.5, 150 mM NaCl, 3.4 mM EDTA, 0.001% NP-40, 30 C
# Test settings: tags: His6 N-terminal (pET28a); label: 5' 32P
In all, about 16,000 sequences were measured (“ka relative to ugcaugu”: median about 0.0091, highest 2% from about 0.032 on). This is one part of a sample in which the highest values are shown more often than they occur.
Property: binding signal; scope: individual binders

Ask | What value of measured binding signal is listed for UCGUCGG (DNA:RNA) RNA: GGGAGACCGGAAUUCAGAUUGUCCUCGUCGGUUAAAUCCCGUCGUAGCCACCA DNA 1: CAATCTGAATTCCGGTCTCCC DNA 2: TGGTGGCTACGACGGGATT ?
Reply | 0.0171 KA relative to UGCAUGU
